Assay: The drug is tested on Clostridium sporogenes strain: ATCC15579 for biotransformation. The drug concentrations were measured before and after a 12-h incubation by liquid-chromatography-coupled mass spectrometry (LC–MS)
Conditions: 2 µM
Metric Name: Bacterial Biotransformation

Cc1nc2n(c(=O)c1CCN1CCC(c3noc4cc(F)ccc34)CC1)CCCC2O (stereo not given)
Compound metabolized
CC(C)(C)N.CCC[C@H](N[C@@H](C)C(=O)N1[C@H](C(=O)O)C[C@@H]2CCCC[C@@H]21)C(=O)OCC
Compound NOT metabolized
O=C(CCCN1CCC(O)(c2ccc(Cl)cc2)CC1)c1ccc(F)cc1
Compound NOT metabolized
Clc1cccc(Cl)c1N=C1NCCN1
Compound NOT metabolized
COc1ccccc1N1CCN(CC(O)COc2cccc3ccccc23)CC1 (stereo not given)
Compound NOT metabolized
Br.CN(C)CCCC1(c2ccc(F)cc2)OCc2cc(C#N)ccc21 (stereo not given) [CITALOPRAM HYDROBROMIDE]
Compound NOT metabolized
CCc1oc2ccccc2c1C(=O)c1cc(Br)c(O)c(Br)c1
Compound NOT metabolized
CC(NC(C)(C)C)C(=O)c1cccc(Cl)c1 (stereo not given)
Compound NOT metabolized

Form field Bacterial Biotransformation, entry COC(=O)[C@H](c1ccccc1Cl)N1CCc2sccc2C1.O=S(=O)(O)O [CLOPIDOGREL BISULFATE] : Compound metabolized

Form field Bacterial Biotransformation, entry Cc1nc(-c2ccc(OCC(C)C)c(C#N)c2)sc1C(=O)O : Compound NOT metabolized
